# Experiment Description: 14-day oral gavage toxicokinetic study in rats
# Assay type: in vivo
# Condition Context: female, rat, plasma, po, 15 mg/kg, Mean Compound 1 Plasma Concentration, rats, oral 15 mg/kg, Day 14, 4 h, Female
# Protocol: Plasma was obtained from blood samples collected from rats in a composite sampling scheme, with 3 samples collected per sex, per dose, at each target collection time, as illustrated in Table 21 to Table 25. […] The following parameters were determined: […] A value of 0 ng/mL was assigned to all values below the lower limit of quantitation (BLQ, <10.0 ng/mL). […] CL: Clearance (L/h/kg), calculated as the dose divided by AUC(0-t). […] Cmax/Dose: Normalized Cmax, calculated as Cmax divided by total dose. […]
Metric: concentration at 4 h
Your reply should be a number followed by the unit it is expressed in.

Fill in: concentration at 4 h of CN1CCN(c2ccc(Nc3ncc4cc5n(c4n3)C3(CCCCC3)CNC5=O)nc2)CC1 [Compound 1] is ___ 1570 ng/mL

###

# Experiment Description: Single escalating dose IV infusion pharmacokinetics in healthy volunteers (noncompartmental)
# Assay type: in vivo, human
# Condition Context: both sexes, human, plasma, iv, 6 mg/m^2, Compound 1 Concentration, Cohort 1, 6 mg/m^2 IV; Time 3.50 h; r7-9=Subjects 1-3,r11=Mean,r13=Min,r14=Median,r15=Max,r17=Geometric Mean
Metric: concentration at 3.5 h (ng/mL)
Please give a number only; it is taken to be in ng/mL.

Fill in: concentration at 3.5 h of CN1CCN(c2ccc(Nc3ncc4cc5n(c4n3)C3(CCCCC3)CNC5=O)nc2)CC1 [Compound 1] is ___ 3.75

###

# Experiment Description: 14-day oral gavage toxicokinetic study in rats
# Format: in vivo
# Condition Context: male, rat, plasma, po, 5 mg/kg, Mean Compound 1 Plasma Concentration, rats, oral 5 mg/kg, Day 14, […], Male
Metric: concentration at […] (ng/mL)
Please give a number only; it is taken to be in ng/mL.

Fill in: concentration at […] of CN1CCN(c2ccc(Nc3ncc4cc5n(c4n3)C3(CCCCC3)CNC5=O)nc2)CC1 is ___ 27.2

###

# Experiment Description: 14-day oral gavage toxicokinetic study in rats
# Assay type: in vivo
# Condition Context: male, rat, plasma, po, 5 mg/kg, oral 5 mg/kg, Study Day 14, Male
Metric: Cmax (ng/mL)
Please give a number only; it is taken to be in ng/mL.

Fill in: Cmax of CN1CCN(c2ccc(Nc3ncc4cc5n(c4n3)C3(CCCCC3)CNC5=O)nc2)CC1 [Compound 1] is ___ 436

###

# Experiment Description: 14-day oral gavage toxicokinetic study in rats
# Type: in vivo
# Condition Context: male, rat, plasma, po, 15 mg/kg, oral 15 mg/kg, Study Day 1, Male
Metric: Cmax (µg/mL)
Please give a number only; it is taken to be in µg/mL.

Fill in: Cmax of CN1CCN(c2ccc(Nc3ncc4cc5n(c4n3)C3(CCCCC3)CNC5=O)nc2)CC1 [Compound 1] is ___ 1.16

###

# Experiment Description: Single escalating dose IV infusion pharmacokinetics in healthy volunteers (noncompartmental)
# Type: in vivo, human
# Condition Context: both sexes, human, plasma, iv, 12 mg/m2, Cohort 2, 12 mg/m^2 IV; r6-8=Subjects 1-3,r10=Mean,r12=Min,r13=Median,r14=Max,r16=Geometric Mean; read-out: Tmax
# Protocol: Forty-five subjects have enrolled in the study. Analysis of plasma concentration versus time data for calculation of standard pharmacokinetic (PK) parameters following intravenous infusion administration was conducted using Phoenix WinNonlin version 6.3 using a nominal infusion duration and scheduled blood sampling times. Random subject numbers were assigned by the bioanalytical laboratory to retain the blind. […]
Metric: Tmax
Your reply should be a number followed by the unit it is expressed in.

Fill in: Tmax of CN1CCN(c2ccc(Nc3ncc4cc5n(c4n3)C3(CCCCC3)CNC5=O)nc2)CC1 is ___ 25 min

###

# Experiment Description: 14-day oral gavage toxicokinetic study in rats
# Assay type: in vivo
# Condition Context: male, rat, plasma, po, 15 mg/kg, Individual Compound 1 Plasma Concentration, rats, daily oral 15 mg/kg, Day 14, Male, […]
Metric: concentration at […] (ng/mL)
Please give a number only; it is taken to be in ng/mL.

Fill in: concentration at […] of CN1CCN(c2ccc(Nc3ncc4cc5n(c4n3)C3(CCCCC3)CNC5=O)nc2)CC1 [Compound 1] is ___ 89.9

###

# Experiment Description: Compound 1 PK dosed Days 1-5 with topotecan
# Assay type: in vivo, human
# Condition Context: human, plasma, intravenous, 200 mg/m^2 with Topotecan 0.75 mg/m^2 (Cohort 3), Day 1, Geo. Mean; read-out: AUCinf
Metric: AUC(0-inf) (ng·h/mL)
Please give a number only; it is taken to be in ng·h/mL.

Fill in: AUC(0-inf) of CN1CCN(c2ccc(Nc3ncc4cc5n(c4n3)C3(CCCCC3)CNC5=O)nc2)CC1 [Compound 1] is ___ 2170

###

# Experiment Description: PK comparison of Compound 1 clinical data with literature PK of palbociclib
# Format: in vivo, human
# Condition Context: human, plasma, 96 mg/m2; 96 mg/m^2 IV
Metric: AUC(0-inf) (ng·h/mL)
Please give a number only; it is taken to be in ng·h/mL.

Fill in: AUC(0-inf) of CN1CCN(c2ccc(Nc3ncc4cc5n(c4n3)C3(CCCCC3)CNC5=O)nc2)CC1 is ___ 1380

###

# Experiment Description: Single escalating dose IV infusion pharmacokinetics in healthy volunteers (noncompartmental)
# Assay type: in vivo, human
# Condition Context: both sexes, human, plasma, iv, 96 mg/m2, Cohort 5, 96 mg/m^2 IV; mean; read-out: Half-lives averaged (converted)
Metric: half-life (h)
Please give a number only; it is taken to be in h.

Fill in: half-life of CN1CCN(c2ccc(Nc3ncc4cc5n(c4n3)C3(CCCCC3)CNC5=O)nc2)CC1 is ___ 8.62

###

# Experiment Description: 14-day oral gavage toxicokinetic study in rats
# Type: in vivo
# Condition Context: male, rat, plasma, po, 5 mg/kg, Mean Compound 1 Plasma Concentration, rats, oral 5 mg/kg, Day 1, 24 h, Male
# Procedure: Plasma was obtained from blood samples collected from rats in a composite sampling scheme, with 3 samples collected per sex, per dose, at each target collection time, as illustrated in Table 21 to Table 25. […] The following parameters were determined: […] A value of 0 ng/mL was assigned to all values below the lower limit of quantitation (BLQ, <10.0 ng/mL). […] CL: Clearance (L/h/kg), calculated as the dose divided by AUC(0-t). […] Cmax/Dose: Normalized Cmax, calculated as Cmax divided by total dose. […]
Metric: concentration at 24 h (ng/mL)
Please give a number only; it is taken to be in ng/mL.

Fill in: concentration at 24 h of CN1CCN(c2ccc(Nc3ncc4cc5n(c4n3)C3(CCCCC3)CNC5=O)nc2)CC1 [Compound 1] is ___ 25.6

###

# Experiment Description: 14-day oral gavage toxicokinetic study in rats
# Type: in vivo
# Condition Context: male, rat, plasma, po, 15 mg/kg, oral 15 mg/kg, Study Day 1, Male
Metric: AUC(0-inf) (ng·h/mL)
Please give a number only; it is taken to be in ng·h/mL.

Fill in: AUC(0-inf) of CN1CCN(c2ccc(Nc3ncc4cc5n(c4n3)C3(CCCCC3)CNC5=O)nc2)CC1 is ___ 16000

###

# Experiment Description: Compound 1 PK dosed Days 1-5 with topotecan
# Assay type: in vivo, human
# Condition Context: human, plasma, intravenous, 200 mg/m^2 with Topotecan 1.25 mg/m^2 (Cohort 2), Day 1, individual subjects; read-out: AUCinf
Metric: AUC(0-inf) (ng·h/mL)
Please give a number only; it is taken to be in ng·h/mL.

Fill in: AUC(0-inf) of CN1CCN(c2ccc(Nc3ncc4cc5n(c4n3)C3(CCCCC3)CNC5=O)nc2)CC1 is ___ 2320

###

# Experiment Description: Topotecan PK following Compound 1 infusion
# Assay type: in vivo, human
# Condition Context: human, plasma, intravenous, topotecan […]^2 (Cohort 1) after Compound 1 200 mg/m^2; Day 1; mean; read-out: Cmax averaged
Metric: Cmax (ng/mL)
Please give a number only; it is taken to be in ng/mL.

Fill in: Cmax of CC[C@@]1(O)C(=O)OCc2c1cc1n(c2=O)Cc2cc3c(CN(C)C)c(O)ccc3nc2-1.Cl is ___ 69.5

###

# Experiment Description: 14-day oral gavage toxicokinetic study in rats
# Assay type: in vivo
# Condition Context: female, rat, plasma, po, 5 mg/kg, Mean Compound 1 Plasma Concentration, rats, oral 5 mg/kg, Day 1, 2 h, Female
Metric: concentration at 2 h

Fill in: concentration at 2 h of CN1CCN(c2ccc(Nc3ncc4cc5n(c4n3)C3(CCCCC3)CNC5=O)nc2)CC1 is ___ 528 ng/mL
